Data origin, for the record: patent US11807648B2

SUBJECT OF TEST: CYP3A4 (Homo sapiens, UniProt P08684)
Sequence (P08684 whole entry): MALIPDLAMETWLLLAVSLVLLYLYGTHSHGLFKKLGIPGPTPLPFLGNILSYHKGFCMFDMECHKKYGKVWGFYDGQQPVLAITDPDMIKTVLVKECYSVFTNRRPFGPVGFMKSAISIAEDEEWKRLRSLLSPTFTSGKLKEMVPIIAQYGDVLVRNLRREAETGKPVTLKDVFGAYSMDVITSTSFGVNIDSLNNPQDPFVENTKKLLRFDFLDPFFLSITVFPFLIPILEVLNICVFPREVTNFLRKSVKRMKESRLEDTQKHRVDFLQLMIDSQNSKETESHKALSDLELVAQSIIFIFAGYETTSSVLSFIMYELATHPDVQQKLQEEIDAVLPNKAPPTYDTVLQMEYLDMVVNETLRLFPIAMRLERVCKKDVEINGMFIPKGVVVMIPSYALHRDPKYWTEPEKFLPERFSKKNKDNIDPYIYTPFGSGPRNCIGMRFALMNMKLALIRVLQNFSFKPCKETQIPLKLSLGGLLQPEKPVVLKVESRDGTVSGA
pIC50: −log10 of the molar value.
ENDPOINT LABEL: pIC50

Provide CYP3A4 (Homo sapiens, UniProt P08684) pIC50 reading for O=C1c2c(O)c(=O)ccn2N([C@@H]2c3ccccc3SCc3c2ccc(F)c3F)[C@@H]2COCCN12 [Compound (V)] .
< 4.70

* * *

SUBJECT OF TEST: CYP2C19 (Homo sapiens, UniProt P33261)
Sequence (P33261 whole entry): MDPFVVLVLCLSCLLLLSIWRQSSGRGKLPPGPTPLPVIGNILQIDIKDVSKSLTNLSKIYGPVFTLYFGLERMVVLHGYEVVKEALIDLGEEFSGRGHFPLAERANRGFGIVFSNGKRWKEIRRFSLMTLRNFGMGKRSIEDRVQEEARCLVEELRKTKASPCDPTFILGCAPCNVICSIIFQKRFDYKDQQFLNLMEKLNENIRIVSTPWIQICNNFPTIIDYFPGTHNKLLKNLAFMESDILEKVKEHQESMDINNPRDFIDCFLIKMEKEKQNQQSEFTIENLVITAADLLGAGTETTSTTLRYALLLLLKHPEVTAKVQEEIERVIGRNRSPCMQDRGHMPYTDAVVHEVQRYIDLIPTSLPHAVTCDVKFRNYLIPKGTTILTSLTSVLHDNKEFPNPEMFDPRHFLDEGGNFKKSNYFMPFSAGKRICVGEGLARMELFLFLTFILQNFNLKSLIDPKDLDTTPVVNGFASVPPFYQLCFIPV
ENDPOINT LABEL: IC50

Provide CYP2C19 (Homo sapiens, UniProt P33261) IC50 reading for O=C1c2c(O)c(=O)ccn2N([C@@H]2c3ccccc3SCc3c2ccc(F)c3F)[C@@H]2COCCN12 .
> 20 µM

* * *

SUBJECT OF TEST: CYP2C9 (Homo sapiens, UniProt P11712)
Sequence (P11712 whole entry): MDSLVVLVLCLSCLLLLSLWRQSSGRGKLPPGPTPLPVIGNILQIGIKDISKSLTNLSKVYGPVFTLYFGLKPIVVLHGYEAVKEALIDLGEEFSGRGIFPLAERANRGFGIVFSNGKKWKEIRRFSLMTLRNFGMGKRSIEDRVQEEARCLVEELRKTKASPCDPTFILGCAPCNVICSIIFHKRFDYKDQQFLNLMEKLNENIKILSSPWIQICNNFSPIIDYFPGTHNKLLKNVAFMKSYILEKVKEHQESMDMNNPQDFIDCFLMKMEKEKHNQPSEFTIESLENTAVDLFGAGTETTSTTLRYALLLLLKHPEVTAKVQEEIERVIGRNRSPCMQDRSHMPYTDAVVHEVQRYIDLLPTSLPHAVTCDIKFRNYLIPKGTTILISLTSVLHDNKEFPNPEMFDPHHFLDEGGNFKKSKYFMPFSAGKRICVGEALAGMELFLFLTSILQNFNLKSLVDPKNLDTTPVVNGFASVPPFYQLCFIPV
ENDPOINT LABEL: IC50

Identify measured IC50 associated with O=C1c2c(O)c(=O)ccn2N([C@@H]2c3ccccc3SCc3c2ccc(F)c3F)[C@@H]2COCCN12
> 20 µM

* * *

SUBJECT OF TEST: CYP1A2 (Homo sapiens, UniProt P05177)
Sequence (P05177 whole entry): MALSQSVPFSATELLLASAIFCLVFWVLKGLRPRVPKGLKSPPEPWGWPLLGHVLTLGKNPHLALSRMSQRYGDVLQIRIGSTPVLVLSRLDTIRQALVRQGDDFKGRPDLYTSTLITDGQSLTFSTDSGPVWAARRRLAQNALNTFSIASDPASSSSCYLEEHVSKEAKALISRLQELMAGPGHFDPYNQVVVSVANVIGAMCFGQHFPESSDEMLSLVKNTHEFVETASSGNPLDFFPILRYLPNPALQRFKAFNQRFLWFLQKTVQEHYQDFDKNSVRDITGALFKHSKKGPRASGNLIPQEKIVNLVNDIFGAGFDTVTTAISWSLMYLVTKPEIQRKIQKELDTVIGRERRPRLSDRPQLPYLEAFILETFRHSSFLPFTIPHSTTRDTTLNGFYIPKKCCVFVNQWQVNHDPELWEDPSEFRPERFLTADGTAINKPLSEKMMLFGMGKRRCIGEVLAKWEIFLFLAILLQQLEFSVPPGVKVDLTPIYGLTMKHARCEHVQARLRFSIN
ENDPOINT LABEL: IC50

Identify measured IC50 associated with O=C1c2c(O)c(=O)ccn2N([C@@H]2c3ccccc3SCc3c2ccc(F)c3F)[C@@H]2COCCN12
> 20 µM
